Recorded AUC0-∞ by entry
# Type: in vivo, human
# stated_conditions: in hPBMCs; single oral dose 600 mg AZT; mean±SD, n=12
Provide the reading as a plain figure in ng⋅h/10^6 cell.

Examples with their reported AUC0-∞ follow.
INPUT: Give the reported value of AUC0-∞ for this record: Cc1cn([C@H]2C[C@H](N=[N+]=[N-])[C@@H](CO)O2)c(=O)[nH]c1=O
OUTPUT: 0.396

INPUT: Give the reported value of AUC0-∞ for this record: Cc1cn([C@H]2C[C@H](N=[N+]=[N-])[C@@H](CO[P@](=O)(O)O[P@](=O)(O)OP(=O)(O)O)O2)c(=O)[nH]c1=O [AZT-TP, 5′-AZT triphosphate]
OUTPUT: 0.279

INPUT: Give the reported value of AUC0-∞ for this record: Cc1cn([C@H]2C[C@H](N=[N+]=[N-])[C@@H](COP(=O)(O)OP(=O)(O)O)O2)c(=O)[nH]c1=O [AZT-DP, AZT diphosphate]
OUTPUT: 0.615

Further cases:
INPUT: Give the reported value of AUC0-∞ for this record: Cc1cn([C@H]2C[C@H](N=[N+]=[N-])[C@@H](COP(=O)(O)O)O2)c(=O)[nH]c1=O [AZT-MP, AZT monophosphate]
OUTPUT: 6.343

====

# method: Plasma pharmacokinetics after a single oral dose of AZT
# Assay type: in vivo, human
# stated_conditions: male, human, po, 600 mg
readout: Cmax (ng/mL)
Provide the reading as a plain figure in ng/mL.

INPUT: Give the reported value of Cmax for this record: Cc1cn([C@H]2C[C@H](N=[N+]=[N-])[C@@H](CO)O2)c(=O)[nH]c1=O
OUTPUT: 3510

====

# method: Plasma pharmacokinetics after a single oral dose of AZT
# Assay type: in vivo, human
# stated_conditions: male, human, po, 600 mg
readout: MRT last (h)
Provide the reading as a plain figure in h.

INPUT: Give the reported value of MRT last for this record: Cc1cn([C@H]2C[C@H](N=[N+]=[N-])[C@@H](CO)O2)c(=O)[nH]c1=O [AZT, 3'-azido-3'-deoxythymidine]
OUTPUT: 2.2

====

Recorded MRT inf by entry
# Type: in vivo, human
# stated_conditions: male, human, peripheral blood mononuclear cells (hPBMCs), po, 600 mg
Provide the reading as a plain figure in h.

INPUT: Give the reported value of MRT inf for this record: Cc1cn([C@H]2C[C@H](N=[N+]=[N-])[C@@H](CO)O2)c(=O)[nH]c1=O [AZT, 3'-azido-3'-deoxythymidine]
OUTPUT: 14.9

Further cases:
INPUT: Give the reported value of MRT inf for this record: Cc1cn([C@H]2C[C@H](N=[N+]=[N-])[C@@H](CO[P@](=O)(O)O[P@](=O)(O)OP(=O)(O)O)O2)c(=O)[nH]c1=O [AZT-TP, 5′-AZT triphosphate]
OUTPUT: 6.33

====

# method: Plasma pharmacokinetics after a single oral dose of AZT
# Assay type: in vivo, human
# stated_conditions: male, human, po, 600 mg
readout: AUC(0-inf) (ng·h/mL)
Provide the reading as a plain figure in ng·h/mL.

INPUT: Give the reported value of AUC(0-inf) for this record: Cc1cn([C@H]2C[C@H](N=[N+]=[N-])[C@@H](CO)O2)c(=O)[nH]c1=O [AZT, 3'-azido-3'-deoxythymidine]
OUTPUT: 7170
